Consider the following compounds; for each one, report its Ki.
Molecular target: Sodium-dependent dopamine transporter (Rattus norvegicus)
Sequence (P23977 whole entry): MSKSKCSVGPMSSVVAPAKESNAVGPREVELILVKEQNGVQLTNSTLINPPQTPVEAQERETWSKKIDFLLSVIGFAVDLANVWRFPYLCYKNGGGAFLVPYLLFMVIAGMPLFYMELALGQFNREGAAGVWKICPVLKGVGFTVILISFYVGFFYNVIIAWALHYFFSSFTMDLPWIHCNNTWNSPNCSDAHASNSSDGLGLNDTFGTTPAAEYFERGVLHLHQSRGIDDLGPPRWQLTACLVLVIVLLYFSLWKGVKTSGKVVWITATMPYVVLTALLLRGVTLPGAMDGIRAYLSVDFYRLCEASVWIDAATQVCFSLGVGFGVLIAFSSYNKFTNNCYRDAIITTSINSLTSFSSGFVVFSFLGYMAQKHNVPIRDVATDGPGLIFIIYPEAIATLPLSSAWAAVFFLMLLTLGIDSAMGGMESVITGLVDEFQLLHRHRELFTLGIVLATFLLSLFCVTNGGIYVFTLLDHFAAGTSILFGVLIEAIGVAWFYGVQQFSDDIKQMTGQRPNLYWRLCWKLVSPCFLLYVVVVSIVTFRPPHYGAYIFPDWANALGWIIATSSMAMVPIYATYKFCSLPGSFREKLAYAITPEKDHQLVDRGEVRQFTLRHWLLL
One number for each entry, in nM.

Solved cases below.
# compound, Ki (nM)
measured = [
    ("C=CCCN1C2CCC1CC(OC(c1ccc(F)cc1)c1ccc(F)cc1)C2 (stereo not drawn)", 31.9),
    ("CC[C@H](CN1C2CCC1CC(OC(c1ccc(F)cc1)c1ccc(F)cc1)C2)c1ccccc1 (stereo partly drawn)", 228),
]

As a next step, examine the compound that follows.
# Ki of C[C@@H](CN1C2CCC1CC(OC(c1ccc(F)cc1)c1ccc(F)cc1)C2)c1ccccc1 (stereo partly drawn) = 477

====

Target: UniProtKB P08482
Test: Binding affinity at Muscarinic acetylcholine receptor M1 in Rat brain homogenate by [3H]pirenzepine displacement.
Type: tissue-based
assay_readout: Ki (nM)
One number for each entry, in nM.

# molecule, unit_symbol, Ki
data = [
    ("Fc1ccc(C(OC2CC3CCC(C2)N3)c2ccc(F)cc2)cc1 (stereo unspecified)", "nM", 203),
    ("C[C@H](CN1C2CCC1CC(OC(c1ccc(F)cc1)c1ccc(F)cc1)C2)c1ccccc1 (stereo partly specified)", "nM", 1900),
    ("CCCCN1C2CCC1CC(OC(c1ccc(F)cc1)c1ccc(F)cc1)C2 (stereo unspecified)", "nM", 399),
    ("O=[N+]([O-])c1ccc(CCCCN2[C@@H]3CC[C@H]2C[C@@H](OC(c2ccc(F)cc2)c2ccc(F)cc2)C3)cc1", "nM", 299),
    ("Nc1ccc(CCCCN2[C@@H]3CC[C@H]2C[C@@H](OC(c2ccc(F)cc2)c2ccc(F)cc2)C3)cc1", "nM", 134),
]

As a next step, examine the molecule that follows.
# Ki of Fc1ccc(C(OC2CC3CCC(C2)N3Cc2ccc(Cl)c(Cl)c2)c2ccc(F)cc2)cc1 (stereo unspecified) = 3880

====

Target: Muscarinic acetylcholine receptor M1 (Rattus norvegicus, UniProt P08482)
Sequence (P08482 whole entry): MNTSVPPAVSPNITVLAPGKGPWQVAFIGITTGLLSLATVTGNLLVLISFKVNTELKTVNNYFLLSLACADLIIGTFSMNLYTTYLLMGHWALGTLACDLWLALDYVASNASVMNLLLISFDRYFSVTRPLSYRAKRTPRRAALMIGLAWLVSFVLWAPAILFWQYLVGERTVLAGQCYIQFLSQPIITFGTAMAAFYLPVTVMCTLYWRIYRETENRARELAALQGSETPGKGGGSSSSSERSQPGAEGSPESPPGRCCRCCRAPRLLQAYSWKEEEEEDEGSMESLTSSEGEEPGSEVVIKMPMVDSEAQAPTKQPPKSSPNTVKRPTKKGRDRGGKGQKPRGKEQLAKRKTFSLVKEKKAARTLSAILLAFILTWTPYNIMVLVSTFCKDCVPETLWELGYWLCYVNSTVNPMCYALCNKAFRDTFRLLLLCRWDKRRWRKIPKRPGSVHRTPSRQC
Assay: Binding affinity at Muscarinic acetylcholine receptor M1 in Rat brain homogenate by [3H]pirenzepine displacement.
Assay type: tissue-based
assay_readout: Ki (nM)
Answers are plain numbers, in nM.

Solved cases below.
# molecule, Ki, nM
rows = [
    ("C=CCN1C2CCC1CC(OC(c1ccc(F)cc1)c1ccc(F)cc1)C2 (centres undefined)", 177),
    ("CC(C)[C@H](N)CN1C2CCC1CC(OC(c1ccc(F)cc1)c1ccc(F)cc1)C2 (some centres undefined)", 4020),
    ("CC[C@H](CN1C2CCC1CC(OC(c1ccc(F)cc1)c1ccc(F)cc1)C2)c1ccccc1 (some centres undefined)", 2360),
    ("C=CCCN1C2CCC1CC(OC(c1ccc(F)cc1)c1ccc(F)cc1)C2 (centres undefined)", 278),
]

Batch of 5 molecules: report Ki for each.
1. C[C@@H](CN1C2CCC1CC(OC(c1ccc(F)cc1)c1ccc(F)cc1)C2)c1ccccc1 (some centres undefined)
2. CC[C@@H](CN1C2CCC1CC(OC(c1ccc(F)cc1)c1ccc(F)cc1)C2)c1ccccc1 (some centres undefined)
3. Fc1ccc(C(OC2CC3CCC(C2)N3Cc2cccc3ccccc23)c2ccc(F)cc2)cc1 (centres undefined)
4. NCCN1[C@@H]2CC[C@H]1C[C@@H](OC(c1ccc(F)cc1)c1ccc(F)cc1)C2
5. CC(C)[C@@H](N)CN1C2CCC1CC(OC(c1ccc(F)cc1)c1ccc(F)cc1)C2 (some centres undefined)

392
1440
1790
1250
2180

====

// each record: one item and its pKi for Sodium-dependent dopamine transporter (Rattus norvegicus)
Give bare numbers, as −log10 of the molar value.

# compound, experimental_system, pKi
rows = [
    ("Fc1ccc(C(OC2CC3CCC(C2)N3Cc2ccc(Cl)c(Cl)c2)c2ccc(F)cc2)cc1 (centres undefined)", "Sodium-dependent dopamine transporter (Rattus norvegicus)", 6.41),
    ("CC[C@@H](CN1C2CCC1CC(OC(c1ccc(F)cc1)c1ccc(F)cc1)C2)c1ccccc1 (some centres undefined)", "Sodium-dependent dopamine transporter (Rattus norvegicus)", 6.40),
    ("Fc1ccc(C(OC2CC3CCC(C2)N3C/C=C/c2ccccc2)c2ccc(F)cc2)cc1 (centres undefined)", "Sodium-dependent dopamine transporter (Rattus norvegicus)", 7.06),
]

Batch of 6 compounds: report pKi for each.
1. CC(C)[C@H](N)CN1C2CCC1CC(OC(c1ccc(F)cc1)c1ccc(F)cc1)C2 (some centres undefined)
2. Fc1ccc(C(OC2CC3CCC(C2)N3Cc2cccc3ccccc23)c2ccc(F)cc2)cc1 (centres undefined)
3. CC(C)[C@@H](N)CN1C2CCC1CC(OC(c1ccc(F)cc1)c1ccc(F)cc1)C2 (some centres undefined)
4. C[C@H](CN1C2CCC1CC(OC(c1ccc(F)cc1)c1ccc(F)cc1)C2)c1ccccc1 (some centres undefined)
5. NCCN1[C@@H]2CC[C@H]1C[C@@H](OC(c1ccc(F)cc1)c1ccc(F)cc1)C2
6. Fc1ccc(C(O[C@H]2C[C@H]3CC[C@@H](C2)N3CCc2c[nH]c3ccccc23)c2ccc(F)cc2)cc1

7.53
6.44
7.25
6.52
7.86
7.35
